Entries and their measured Kd follow.
# Target Or Test System: SULT1A1 (Homo sapiens)
# Assay Overview: Equilibrium binding of TAM and 1-HP to SULT1A1 forms E, E·PAP, E·
# Particulars: Kd, acceptor binding to E (no nucleotide); pH 7.2, 25 °C
Measured Attribute: Kd (µM)

>>> data_value("Oc1ccc2ccc3cccc4ccc1c2c34 [1-HP, 1-hydroxypyrene]")
8
>>> data_value("CC/C(=C(\\c1ccc(O)cc1)c1ccc(OCCN(C)C)cc1)c1ccccc1 [TAM, 4-hydroxytamoxifen]")
0.67

----------
# Target Or Test System: SULT1A1 (Homo sapiens)
# Assay Overview: Pre-steady-state PAPS binding
# Particulars: read-out: koff/kon; low-affinity PAPS binding site
Measured Attribute: Kd (µM)

>>> data_value("Nc1ncnc2c1ncn2[C@@H]1O[C@H](COP(=O)(O)OS(=O)(=O)O)[C@@H](OP(=O)(O)O)[C@H]1O [PAPS, 3′-phosphoadenosine 5′-phosphosulfate]")
30

----------
# Target Or Test System: SULT1A1 (Homo sapiens, UniProt P50225)
# Sequence (P50225 whole entry): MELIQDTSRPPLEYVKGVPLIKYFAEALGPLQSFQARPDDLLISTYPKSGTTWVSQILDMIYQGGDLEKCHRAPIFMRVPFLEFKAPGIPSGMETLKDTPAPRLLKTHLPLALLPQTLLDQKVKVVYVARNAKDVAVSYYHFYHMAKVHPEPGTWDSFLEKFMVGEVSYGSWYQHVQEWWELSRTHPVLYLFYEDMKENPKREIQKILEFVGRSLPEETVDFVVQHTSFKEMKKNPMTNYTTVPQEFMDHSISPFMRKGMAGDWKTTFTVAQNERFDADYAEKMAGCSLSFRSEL
# Assay Overview: Pre-steady-state PAPS binding
# Particulars: read-out: koff/kon; high-affinity PAPS binding site
pKd: −log10 of the molar value.
Measured Attribute: pKd

>>> data_value("Nc1ncnc2c1ncn2[C@@H]1O[C@H](COP(=O)(O)OS(=O)(=O)O)[C@@H](OP(=O)(O)O)[C@H]1O [PAPS, 3′-phosphoadenosine 5′-phosphosulfate]")
6.43

----------
# Target Or Test System: SULT1A1 (Homo sapiens, UniProt P50225)
# Assay Overview: Equilibrium binding of PAPS to SULT1A1
# Particulars: low-affinity PAPS binding site; SULT1A1 3.0 μM dimer, pH 7.2, 25 °C
Measured Attribute: Kd

>>> data_value("Nc1ncnc2c1ncn2[C@@H]1O[C@H](COP(=O)(O)OS(=O)(=O)O)[C@@H](OP(=O)(O)O)[C@H]1O [PAPS, 3′-phosphoadenosine 5′-phosphosulfate]")
"30 µM"
